Some binders, each annotated with its measured FOB (fold over binding).
# System Under Test: T1, Mouse TREM2, on cells (mouse, UniProt Q99NH8 19-227)
# T1 construct: whole, on cells; also called mouse TREM2 HEK
# T1 sequence (looked up): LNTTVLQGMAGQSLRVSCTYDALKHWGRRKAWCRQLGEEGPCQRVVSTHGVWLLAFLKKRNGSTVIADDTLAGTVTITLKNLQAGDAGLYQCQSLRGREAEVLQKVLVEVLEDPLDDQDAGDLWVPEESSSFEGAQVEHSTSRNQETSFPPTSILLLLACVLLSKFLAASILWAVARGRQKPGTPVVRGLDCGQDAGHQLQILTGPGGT
# Test Name: flow cytometry, 293F cells overexpressing mouse TREM2; also: test concentration or dose not given here
API: value field is a number in fold; no unit string.

Known results for binders:
26D2.D1 (antibody, IgG2a, V domains shown, Mouse hybridoma antibody, IgG2a, k; also called RS8.26D2.D1) VH: EVQLQQSGPELVKPGASVKMSCKASGYTFTSYVMHWVKQKPGQGLEWIGYINPYTDGTKYNEKFKGKATLTSDKSSSTAYMDLSSLTSEDSAVYYCARGEVRRYALDYWGQGTSVTVSS VL: DIQMTQSSSSFSVSLGDRVTITCKASEDIYNRLAWYQQKPGNAPRLLISGATSLETGVPSRFSGSGSGKDYTLSITSLQTEDVATYYCQQYWSTPWTFGGGTKLEIK
2.8
26E2.A3 (antibody, V domains shown, Mouse hybridoma antibody, Ig2a, k; also called RS8.26E2.A3) VH: QVHLQQSGSELRSPGSSVKLSCKDFDSEVFPISYMSWIRQKPGHGFEWIGDILPSIGGRIYGVKFEDRATLDADTVSNTAYLELNSLTSEDSAIYYCARKDYGSLAYWGQGTLVTVSA VL: DVVMTQTPLSLPVSLGDQASISCRSSQSLVHINGNTYLQWFLQKPGQSPKLLIYKVSNRFSGVPDRFSGSGSGTAFTLKISRVEAEDLGVYFCSQSTHVPYTFGGGTKLEIK
1.5
24B4.A1 (antibody, V domains shown, Mouse hybridoma antibody, Ig2a, k; same entries as 26E2.A3; also called RS8.24B4.A1) VH: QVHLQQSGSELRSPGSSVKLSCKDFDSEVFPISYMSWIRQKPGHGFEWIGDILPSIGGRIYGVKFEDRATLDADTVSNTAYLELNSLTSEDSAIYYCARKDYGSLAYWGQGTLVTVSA VL: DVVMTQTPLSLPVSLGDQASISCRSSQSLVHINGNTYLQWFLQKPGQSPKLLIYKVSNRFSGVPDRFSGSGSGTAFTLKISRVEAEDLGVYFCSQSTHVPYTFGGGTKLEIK
1.5
57D7.A1 (antibody, V domains shown, Mouse hybridoma antibody, Ig2a, k; also called RS8.57D7.A1) VH: QVQLKESGPGLVAPSQSLSITCTVSGFSLSRYSVYWVRQPPGKGLEWLGMIWGGGNTDYNSALKSRLSISKDNSKSQVFLKMNSLQTDDSAMYYCVQYGGMDYWGQGTSVTVSS VL: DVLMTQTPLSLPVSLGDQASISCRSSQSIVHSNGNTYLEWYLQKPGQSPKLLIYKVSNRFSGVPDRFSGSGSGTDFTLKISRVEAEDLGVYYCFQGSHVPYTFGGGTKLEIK
1.7
40H3.A4 (antibody, V domains shown, Mouse hybridoma antibody, isotype N.D; also called RS8.40H3.A4) VH: EVQLQQSGAEVVKPGASVKLSCTASGFNIKDTYMHWVKQRPEQGLEWIGRIDPANGNTKYDPKFQGKATITADTSSNTAYLQLSSLTSEDTAVYYCATLFAYWGQGTLVTVSA VL: DIVMTQAAFSNPVTLGTSASISCRSSKSLLHSNGITYLYWYLQKPGQSPQLLIYQMSNLASGVPDRFSSSGSGIDFTLRINRVEAEDVGVYYCAQNLELPTFGSGTKLEIK
0.8

QUERY: Would you mind telling me what FOB (fold over binding) value was observed for 49H11.B1 (antibody, IgG3, V domains shown, Mouse hybridoma antibody, IgG3, k; also called RS8.49H11.B1) VH: DVQLQESGPGLVKPSQSLSLTCTVTGYSITSDYAWNWIRQFPGNRLEWMGYISFSGSTSYNPSLKSRISITRDTSKNQFFLQLNSVTTEDTATYYCARWNGNYGFAYWGQGTLVTVSA VL: DVVMTQTPLSLPVSLGDQASISCRSSQSLVHINGNTYLHWYLQKPGQSPKLLIYKVSNRFSGVPDRFSGSGSGTDFTLKISRVEAEDLGVYFCSQSTHVTFTFGSGTKLEIK ?
RESULT: 1.2

QUERY: Would you mind telling me what FOB (fold over binding) value was observed for RS9.F6 (antibody, V domains shown) VH: QVQLQQPGAELVKPGASVKLSCKASGYTFTSYWMHWVKQSPGRGLEWIGRSDPTTGGTNYNEKFKTKATLTVDKPSSTAYMQLSSLTSDDSAVYYCVRTSGTGDYWGQGTSLTVSS VL: DVVMTQTPLSLPVSLGDQASISCRSSQSLVHNNGNTFLHWYLQKPGQSPKLLIYKVSNRFSGVPDRFSGSGSGTDFTLKISRVEAEDLGVYFCSQTTHVPPTFGGGTKLEIK ?
RESULT: 73

QUERY: Would you mind telling me what FOB (fold over binding) value was observed for RS9.F10 (antibody, V domains shown, same entries as RS9.F6; also called RS.F10) VH: QVQLQQPGAELVKPGASVKLSCKASGYTFTSYWMHWVKQSPGRGLEWIGRSDPTTGGTNYNEKFKTKATLTVDKPSSTAYMQLSSLTSDDSAVYYCVRTSGTGDYWGQGTSLTVSS VL: DVVMTQTPLSLPVSLGDQASISCRSSQSLVHNNGNTFLHWYLQKPGQSPKLLIYKVSNRFSGVPDRFSGSGSGTDFTLKISRVEAEDLGVYFCSQTTHVPPTFGGGTKLEIK ?
RESULT: 75.8

QUERY: Would you mind telling me what FOB (fold over binding) value was observed for 54C2.A1 (antibody, V domains shown, Mouse hybridoma antibody, Ig2b, k; also called RS8.54C2.A1) VH: QVHLQQSGSELRSPGSSVKLSCKDFDSEVFPIAYMSWVRQKPGHGFEWIGDILPSIGRRIYGVKFEDKATLDADTVSNTAYLELNSLTSEDSAIYYCTRKDYGSLAYWGQGTLVTVSA VL: DVVMTQTPLSLPVSLGDQASISCRSSQSLVHINGNTYLQWYLQKPGQSPKLLIYKVSNRFSGVPDRFSGSGSGTDFTLRISRVEAEDLGVYFCSQSTHLPYTFGGGTKLEIK ?
RESULT: 1.7

QUERY: Would you mind telling me what FOB (fold over binding) value was observed for 21D11 (antibody, IgG2a, V domains shown, Mouse hybridoma antibody, IgG2a, k; also called 21D11.B1; RS8.21D11.B1) VH: QVQLQQSGAELARPGASVKLSCKASGYTFTSYWIQWVKQRPGQGLEWIGTIYPGDGDARYTQKFKGKATLTADKSSSTTYMQLNSLASEDSAVYYCARNGITTAGYYAMDYWGQGTSVTVSS VL: DIQMTQSPASLSVSVGETVTITCRASENIYSNLAWYQQKQGRSPQLLVYAATNLADGVPSRFSGSGSGTQYSLKINSLQSEDFGYYYCQHFWGTPYTFGGGTKVEIK ?
RESULT: 1.5

Taken from patent US20200277373A1.
